tested.target: human FPR1 (Homo sapiens (Human), UniProt P21462)
Sequence (P21462 whole entry): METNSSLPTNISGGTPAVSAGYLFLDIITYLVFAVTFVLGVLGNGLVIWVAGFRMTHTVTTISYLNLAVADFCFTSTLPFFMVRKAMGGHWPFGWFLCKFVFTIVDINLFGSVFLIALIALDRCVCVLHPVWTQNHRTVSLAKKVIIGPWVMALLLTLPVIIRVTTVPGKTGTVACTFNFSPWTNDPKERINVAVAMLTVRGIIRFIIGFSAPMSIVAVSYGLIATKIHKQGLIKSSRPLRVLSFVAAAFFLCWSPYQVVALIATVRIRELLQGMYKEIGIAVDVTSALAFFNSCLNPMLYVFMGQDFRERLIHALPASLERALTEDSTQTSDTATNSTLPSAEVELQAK
assay.notes: FPR1 cyclic adenosine monophosphate (cAMP) assay
Assay type: cell-based
details: CHO cells overexpressing human FPR1; forskolin 10 μM, IBMX 200 μM; inhibition of cAMP production, HTRF; read-out: hFPR1 cAMP EC50
outcome.measure: log10(EC50) (log10 of the value in nM)

molecule	recorded.number
CCn1cccc(N2C[C@@H](c3ccc(OC)cc3)[C@H](NC(=O)NC3CCc4cc(Cl)ccc4C3)C2=O)c1=O (some centres unmarked) [Example 6]	-1.00
COc1cc(F)c([C@H]2[C@H](NC(=O)NC3CCc4cc(OC)ccc4C3)C(=O)N(c3cccn(CCO)c3=O)[C@H]2C)c(F)c1 (single isomer, unassigned) [Example 90]	0.57
COCC(CO)n1cccc(N2C[C@@H](c3c(F)cc(OC)cc3F)[C@H](NC(=O)NC3CCc4cc(OC)ccc4C3)C2=O)c1=O (some centres unmarked) [Example 81]	0.18
COc1cc(F)c([C@@H]2CN(c3cccn(C(F)F)c3=O)C(=O)[C@H]2NC(=O)NC2CCc3cc(OC)ccc3C2)c(F)c1 (single isomer, unassigned) [Example 94]	0.08
COc1cc(F)c([C@@H]2CN(c3c(OC)ccn(C)c3=O)C(=O)[C@H]2NC(=O)NC2CCc3cc(OC)ccc3C2)c(F)c1 (some centres unmarked) [Example 57]	0.08
COc1cc(F)c([C@@H]2CN(c3nccc(NC4CCOC4)c3C(F)(F)F)C(=O)[C@H]2NC(=O)N[C@H]2CC[C@H](C(F)F)CC2)c(F)c1 (single isomer, unassigned) [Example 99]	2.86
